Assay: physchem
Details: 37 °C, thermodynamic from solid, FeSSIF solubility
QUANTITY NAME: solubility (µg/mL)
Report only the number, with the unit µg/mL understood.

Give reported solubility value for CCC[C@H](NC(=O)[C@@H]1[C@H]2CCC[C@H]2CN1C(=O)[C@@H](NC(=O)[C@@H](NC(=O)c1cnccn1)C1CCCCC1)C(C)(C)C)C(=O)C(=O)NC1CC1 [Telaprevir]
80

----------
Experiment: Solubility measurement in biorelevant media (FaSSIF-V2, FeSSIF-V2)
Conditions: FeSSIF-V2 (fed state simulated intestinal fluid), 37 °C, thermodynamic from solid, FeSSIF solubility
QUANTITY NAME: solubility (µg/mL)

CCC(C)n1ncn(-c2ccc(N3CCN(c4ccc(OCC5COC(Cn6cncn6)(c6ccc(Cl)cc6Cl)O5)cc4)CC3)cc2)c1=O (stereo not drawn) [Itraconazole]	3620

P: CC[C@H]1OC(=O)[C@H](C)[C@@H](O[C@H]2C[C@@](C)(OC)[C@@H](O)[C@H](C)O2)[C@H](C)[C@@H](O[C@@H]2O[C@H](C)C[C@H](N(C)C)[C@H]2O)[C@](C)(OC)C[C@@H](C)C(=O)[C@H](C)[C@@H](O)[C@]1(C)O [Clarithromycin]
Q: CN/C(=N/CCSCc1nc[nH]c1C)NC#N [Cimetidine]
Looking at P and Q , which one comes out lower in solubility terms? Please respond with the label that marks your chosen entry.
P

----------
Assay: pKa
Settings: pKa (a, acidic)
QUANTITY NAME: pKa

Sample answers from the record:
Cc1[nH]c2ccccc2c1CCNCc1ccc(/C=C/C(=O)NO)cc1	8.35
CC(C)NC[C@@H](O)c1ccc(NS(C)(=O)=O)cc1	8.28
CC(C)(C)c1cc(C(C)(C)C)c(NC(=O)c2c[nH]c3ccccc3c2=O)cc1O	9.4

P: C[C@@H](O[C@H]1OCCN(Cc2n[nH]c(=O)[nH]2)[C@H]1c1ccc(F)cc1)c1cc(C(F)(F)F)cc(C(F)(F)F)c1 [Aprepitant]
Q: Cc1c(F)cccc1NC(=O)Nc1ccc(Cl)c(S(=O)(=O)[C@H]2CCCNC2)c1O
Choose between P and Q : whose measured pKa value is numerically larger? Please respond with the label that marks your chosen entry.
P

----------
Test: pKa
Conditions: pKa (b, basic)
QUANTITY NAME: pKa

Sample answers from the record:
CCc1cc2c(cc1N1CCC(N3CCOCC3)CC1)C(C)(C)c1[nH]c3cc(C#N)ccc3c1C2=O	7.05
Cc1ccc(NC(=O)c2ccc(CN3CCN(C)CC3)cc2)cc1Nc1nccc(-c2cccnc2)n1	3.73

P: C[C@@H](O[C@H]1OCCN(Cc2n[nH]c(=O)[nH]2)[C@H]1c1ccc(F)cc1)c1cc(C(F)(F)F)cc(C(F)(F)F)c1 [Aprepitant]
Q: Cc1ccc(-c2ncc(Cl)cc2-c2ccc(S(C)(=O)=O)cc2)cn1
Choose between P and Q : whose measured pKa value is numerically larger? Please respond with the label that marks your chosen entry.
Q

----------
Test: pKa
Conditions: pKa (a, acidic)
QUANTITY NAME: pKa
Keep it simple and answer with nothing but the number.

Sample answers from the record:
CC(C)(C)c1nc(-c2cccc(NS(=O)(=O)c3c(F)cccc3F)c2F)c(-c2ccnc(N)n2)s1 [Dabrafenib]	6.6
O=C1NC(=O)C(c2ccccc2)(c2ccccc2)N1 [Phenytoin]	8.06

Give reported pKa value for CC1(C)CCC(CN2CCN(c3ccc(C(=O)NS(=O)(=O)c4ccc(NCC5CCOCC5)c([N+](=O)[O-])c4)c(Oc4cnc5[nH]ccc5c4)c3)CC2)=C(c2ccc(Cl)cc2)C1 [Venetoclax]
3.4
